Parameter: RP-LC retention time. Scope: all listed entries.
assay: gradient 5% acetonitrile 3 min, to 50% in 2 min, to 85% in 15 min, held 3 min, 100 µL/min; details: column: Zorbax Extend-C18 2.1 x 50 mm; eluents: water / acetonitrile, 0.1% formic acid
Just the number in s, nothing appended.

Molecule	Experimental value
COc1cc2c(cc1OC)C1C(C(=O)NCCCN3CCCCCC3)c3ccccc3C(=O)N1CC2 (stereo unspecified)	617

Entry O=C(O)c1ccc2c(c1Sc1ccccc1)C(=O)c1ccccc1C2=O — recorded RP-LC retention time = 887

----------
Parameter: RP-LC retention time. Scope: all listed entries.
assay: gradient 5% acetonitrile 3 min, to 50% in 2 min, to 85% in 15 min, held 3 min, 100 µL/min; settings: column: Zorbax Extend-C18 2.1 x 50 mm; eluents: water / acetonitrile, 0.1% formic acid
Just the number in s, nothing appended.

Molecule	RP-LC retention time (s)
CN(C)C(=O)N1CC(c2noc(-c3cccnc3)n2)C2(CCOCC2)C1 (stereo not drawn)	634
O=C(C1=NN(Cc2ccccc2F)c2ccc(Cl)cc2S1(=O)=O)N1CCOCC1	875
O=C(Nc1nc(-c2cccnc2)cs1)c1ccc(Br)s1	654
COc1cccc(-c2ccc3nc(N4CCC(C(=O)NC5CC5)CC4)sc3n2)c1	861
Cc1nn(C)cc1CN(C)C(=O)CC(c1ccccc1)c1ccccc1	765

Entry CCCN1C(=O)COc2ccc(-c3noc(-c4ccccc4Br)n3)cc21 — recorded RP-LC retention time = 1280

Entry CC(=O)c1cccc(S(=O)(=O)NC(C)Cc2ccco2)c1 (stereo not drawn) — recorded RP-LC retention time = 770
